assay explanation: Selectivity ratio of CC50 for human A549 cells to MIC for Staphylococcus aureus
Format: toxicity

line notation	selectivity ratio
Cc1cc(Cl)cc2sc(N(CCCn3ccnc3)C(=O)C3CCCC3)nc12	34

* * *

Tested on: Pseudomonas aeruginosa
assay explanation: Antibacterial activity against Pseudomonas aeruginosa PAO1 harbouring delta6 mutant
Format: functional

compound	operator	MIC / µM
CC[C@H]1OC(=O)[C@H](C)[C@@H](O[C@H]2C[C@@](C)(OC)[C@@H](O)[C@H](C)O2)[C@H](C)[C@@H](O[C@@H]2O[C@H](C)C[C@H](N(C)C)[C@H]2O)[C@](C)(O)C[C@@H](C)C(=O)[C@H](C)[C@@H](O)[C@]1(C)O	=	8
Cc1cc(Cl)cc2sc(N(CCCn3ccnc3)Cc3ccccc3)nc12	>	200
Cc1cc(Cl)cc2sc(N(CCCn3ccnc3)C(=O)C3CC3)nc12	=	50
CO[C@@H]1[C@@H](OC(N)=O)[C@@H](O)[C@H](Oc2ccc3c(O)c(NC(=O)c4ccc(O)c(CC=C(C)C)c4)c(=O)oc3c2C)OC1(C)C	=	256
Cc1cc(Cl)cc2sc(N(CC3CCCNC3)C(=O)c3ccco3)nc12 (stereo not given)	>	200
NCc1cccc2sc(N(CCCn3ccnc3)C(=O)c3ccco3)nc12	=	100
Cc1cc(Cl)cc2sc(N(CCCn3ccnc3)C(=O)c3ccc[nH]3)nc12	>	100
Cc1cc(Cl)cc2sc(N(CCCn3ccnc3)C(=O)c3ccco3)nc12	>	200
Cc1cc(Cl)cc2sc(N(CC3CCNCC3)C(=O)c3ccco3)nc12	=	25
Cc1cc(Cl)cc2sc(N(CCCn3ccnc3)C(=O)C(C)C)nc12	=	50

* * *

Test system: A549
assay explanation: Cytotoxicity against human A549 cells
Type: toxicity, cell-based
test parameters: a549
Mark each entry yes (1) if its CC50 sits below 40 µM, and no (0) for all others.

molecule	category
Cc1ccoc1C(=O)N(CCCn1ccnc1)c1nc2c(C)cc(Cl)cc2s1	no (0)
Cc1cc(C(=O)N(CCCn2ccnc2)c2nc3c(C)cc(Cl)cc3s2)oc1C	no (0)
Cc1cc(Cl)cc2sc(N(CCCn3ccnc3)C(=O)c3ccc[nH]3)nc12	no (0)
Cc1cc(Cl)cc2sc(N(CCCn3ccnc3)C(=O)c3ccco3)nc12	yes (1)
Cc1cc(Cl)cc2sc(N(CCCn3ccnc3)C(=O)C3CCCC3)nc12	no (0)
Cc1ccc(C(=O)N(CCCn2ccnc2)c2nc3c(C)cc(Cl)cc3s2)s1	yes (1)
Cc1cc(Cl)cc2sc(N(CCCn3ccnc3)C(=O)c3ccccc3)nc12	yes (1)
Cc1cc(Cl)cc2sc(N(CCCn3ccnc3)C(=O)C3(C)CC3)nc12	no (0)
Cc1cc(Cl)cc2sc(N(CCCn3ccnc3)C(=O)c3ccccn3)nc12	no (0)
Cc1ccc(C(=O)N(CCCn2ccnc2)c2nc3c(C)cc(Cl)cc3s2)o1	yes (1)
Cc1cc(Cl)cc2sc(N(CCCn3ccnc3)C(=O)C3CCC3)nc12	no (0)
Cc1cc(Cl)cc2sc(N(CCCn3ccnc3)C(=O)C3CCCO3)nc12 (stereo not drawn)	no (0)
Cc1cc(Cl)cc2sc(N(CCCn3ccnc3)C(=O)c3ccoc3)nc12	no (0)

* * *

Test system: Pseudomonas aeruginosa
assay explanation: Antibacterial activity against Pseudomonas aeruginosa PAO1
Assay type: functional

compound	MIC
CC[C@H]1OC(=O)[C@H](C)[C@@H](O[C@H]2C[C@@](C)(OC)[C@@H](O)[C@H](C)O2)[C@H](C)[C@@H](O[C@@H]2O[C@H](C)C[C@H](N(C)C)[C@H]2O)[C@](C)(O)C[C@@H](C)C(=O)[C@H](C)[C@@H](O)[C@]1(C)O [ERYTHROMYCIN]	128 µM
Cc1cc(Cl)cc2sc(N(CC3CCNCC3)C(=O)c3ccco3)nc12	> 200 µM
Cc1cc(Cl)cc2sc(N(CCCn3ccnc3)C(=O)C3CC3)nc12	> 200 µM
CO[C@@H]1[C@@H](OC(N)=O)[C@@H](O)[C@H](Oc2ccc3c(O)c(NC(=O)c4ccc(O)c(CC=C(C)C)c4)c(=O)oc3c2C)OC1(C)C [NOVOBIOCIN]	> 512 µM
Cc1cc(Cl)cc2sc(N(CCCn3ccnc3)C(=O)c3ccc[nH]3)nc12	> 100 µM
Cc1cc(Cl)cc2sc(N(CCCn3ccnc3)C(=O)c3ccco3)nc12	> 100 µM
Cc1cc(Cl)cc2sc(N(CCCn3ccnc3)C(=O)C(C)C)nc12	> 200 µM
Cc1cc(Cl)cc2sc(N(CC3CCCNC3)C(=O)c3ccco3)nc12 (stereo not given)	> 200 µM
NCc1cccc2sc(N(CCCn3ccnc3)C(=O)c3ccco3)nc12	> 200 µM
Cc1cc(Cl)cc2sc(N(CC3CCC(N)CC3)C(=O)c3ccco3)nc12 (stereo not given)	> 200 µM
